// data source = patent US10239835B2

# target.under.test: HEK293 cells expressing NR1/NR2B (Homo sapiens (Human), UniProt Q05586+Q13224)
# Sequence (Q13224 27-1484, other chains not shown): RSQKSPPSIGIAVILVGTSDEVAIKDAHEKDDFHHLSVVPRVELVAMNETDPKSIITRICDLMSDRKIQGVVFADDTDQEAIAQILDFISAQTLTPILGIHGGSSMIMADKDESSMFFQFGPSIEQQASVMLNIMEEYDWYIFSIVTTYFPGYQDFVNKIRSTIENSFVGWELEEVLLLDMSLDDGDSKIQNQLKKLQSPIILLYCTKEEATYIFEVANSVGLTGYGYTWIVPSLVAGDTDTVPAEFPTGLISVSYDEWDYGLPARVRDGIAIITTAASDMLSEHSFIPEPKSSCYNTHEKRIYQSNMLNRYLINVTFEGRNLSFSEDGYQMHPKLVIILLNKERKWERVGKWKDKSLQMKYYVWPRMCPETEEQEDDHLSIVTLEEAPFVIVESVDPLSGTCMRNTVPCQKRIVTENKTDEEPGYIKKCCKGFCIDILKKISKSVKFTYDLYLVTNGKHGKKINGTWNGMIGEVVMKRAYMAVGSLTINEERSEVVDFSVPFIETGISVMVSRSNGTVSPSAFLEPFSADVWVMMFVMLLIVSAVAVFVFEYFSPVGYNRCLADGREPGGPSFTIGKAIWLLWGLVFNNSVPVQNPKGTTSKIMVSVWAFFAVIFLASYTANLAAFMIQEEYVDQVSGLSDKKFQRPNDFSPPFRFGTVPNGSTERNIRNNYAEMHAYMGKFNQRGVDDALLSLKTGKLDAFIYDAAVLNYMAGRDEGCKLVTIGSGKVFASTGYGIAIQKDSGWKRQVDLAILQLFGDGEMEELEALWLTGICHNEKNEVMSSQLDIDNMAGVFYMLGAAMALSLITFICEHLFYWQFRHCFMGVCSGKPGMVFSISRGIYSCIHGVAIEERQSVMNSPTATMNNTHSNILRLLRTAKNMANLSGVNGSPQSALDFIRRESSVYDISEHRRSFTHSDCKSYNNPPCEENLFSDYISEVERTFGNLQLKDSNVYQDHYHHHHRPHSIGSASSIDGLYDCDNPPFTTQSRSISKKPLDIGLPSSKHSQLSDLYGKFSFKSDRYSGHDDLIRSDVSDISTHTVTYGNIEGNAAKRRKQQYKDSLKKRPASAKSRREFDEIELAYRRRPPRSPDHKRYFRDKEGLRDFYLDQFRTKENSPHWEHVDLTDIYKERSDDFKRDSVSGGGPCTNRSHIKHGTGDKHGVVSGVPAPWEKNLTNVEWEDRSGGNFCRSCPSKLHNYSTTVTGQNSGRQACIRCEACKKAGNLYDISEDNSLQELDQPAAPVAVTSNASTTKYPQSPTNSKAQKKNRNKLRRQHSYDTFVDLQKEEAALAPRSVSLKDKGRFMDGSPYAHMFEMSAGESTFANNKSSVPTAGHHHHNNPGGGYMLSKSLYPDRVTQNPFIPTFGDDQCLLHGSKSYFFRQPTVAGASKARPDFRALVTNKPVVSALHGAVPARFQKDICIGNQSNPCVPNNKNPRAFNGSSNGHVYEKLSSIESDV
# assay.summary: NR2B NAM Assay (FDSS Ca2+ influx cell assay)
# experimental.conditions: NR2B NAM assay, class of inhibitory concentration; read-out: Activity Category
pIC50: −log10 of the molar value.
measurement.kind: pIC50

A selection of reference data follows.
1. Oc1ccc(C(O)CN2C[C@H]3C[C@H](Oc4cncc(Cl)c4)C[C@H]3C2)cc1 (some centres unmarked): 6.00 to 7.00
2. Oc1ccc([C@H](O)CN2C[C@H]3C[C@H](Oc4ccccc4)C[C@H]3C2)nc1: > 7.00
3. COc1ccc(O[C@H]2C[C@@H]3CN(CC(=O)c4ccc(O)c(F)c4)C[C@@H]3C2)cc1: 6.00 to 7.00
4. Oc1ccc(C(O)CN2C[C@H]3C[C@H](Oc4ccccc4F)C[C@H]3C2)cc1 (some centres unmarked): > 7.00
5. O=C(CN1C[C@H]2C[C@@H](Oc3ccc(F)cc3)C[C@H]2C1)c1ccc(O)cc1: > 7.00

In: Fill in the blank: the reported pIC50 of Cc1ccc(O[C@H]2C[C@@H]3CN(CC(O)c4ccc(O)cn4)C[C@@H]3C2)c(F)c1 (some centres unmarked) is ____.
Out: > 7.00

In: Cool, now Oc1ccc(C(O)CN2C[C@H]3C[C@H](Oc4ccc(F)cc4)C[C@H]3C2)nc1 (some centres unmarked)
Out: > 7.00

In: Also Oc1ccc(C(O)CN2C[C@H]3C[C@H](Oc4ccc(F)nc4)C[C@H]3C2)cc1 (some centres unmarked) ?
Out: > 7.00

###

# target.under.test: HEK293 cells expressing NR1/NR2B (Homo sapiens (Human), UniProt Q13224)
# assay.summary: NR2B NAM Assay (FDSS Ca2+ influx cell assay)
# Format: cell-based
# experimental.conditions: Ca2+ influx inhibition relative to MK801; 3 μM glutamate, 3 μM glycine, 1 mM Ca2+; read-out: NR2B NAM IC50
measurement.kind: IC50
Quote the value and follow it with the unit of measurement.

Below, each entry is followed by its recorded IC50 result.
1) COc1ccc(O[C@H]2C[C@@H]3CN(CC(O)c4ccc(O)cn4)C[C@@H]3C2)cc1 (stereo partly shown): 65.8 nM
2) COc1ccc(F)c(O[C@H]2C[C@@H]3CN(CC(=O)c4ccc(O)cc4)C[C@@H]3C2)c1: 631 nM
3) Oc1ccc(C(O)CN2C[C@H]3C[C@H](Oc4ccccc4F)C[C@H]3C2)cc1 (stereo partly shown): 4.44 nM
4) O=C(CN1C[C@H]2CC(S(=O)(=O)c3ccccc3)C[C@H]2C1)c1ccc(O)cc1 (stereo partly shown): 3500 nM
5) COc1ccc(O[C@H]2C[C@@H]3CN(CC(=O)c4ccc(O)c(F)n4)C[C@@H]3C2)cc1: 10000 nM
6) Oc1ccc(C(O)CN2C[C@H]3C[C@H](Oc4ccc(F)cc4F)C[C@H]3C2)cc1 (stereo partly shown): 8.62 nM
7) O=C(CN1C[C@H]2C[C@H](Oc3ccncc3)C[C@H]2C1)c1ccc(O)cc1: 2780 nM
8) O=C(CN1C[C@H]2C[C@H](Sc3ccc(F)cc3)C[C@H]2C1)c1ccc(O)cc1: 74 nM

Please turn your attention to the following entry.
In: Any idea what IC50 was measured for Oc1ccc(C(O)CN2C[C@H]3C[C@H](Oc4ccc(F)nc4)C[C@H]3C2)nc1 (stereo partly shown) ?
Out: 112 nM
